B1: HESX1 (parent)
chain: ENKPSTCSFSIERILGLDQKKDCV

Variants of: B1
Assay Notes: protein stability index of a GFP-peptide fusion (GPS, HEK-293T) (PSI 1-6); higher = more stable;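 note: lentivirally expressed fusions sorted by FACS into six bins by GFP to DsRed ratio, PSI derived from sequencing read proportions per bin multiplied by bin number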
Condition Parameters: c terminus: a fixed tail appended
Measurement Kind: protein stability index

INSERT INTO results (mutant, value_reported) VALUES
  ('N2V', 2.88),
  ('G16A', 3.2),
  ('C23T', 3.16),
  ('D18Y', 2.14),
  ('C23V', 3.41),
  ('K20D', 3.27),
  ('K21Q', 2.93),
  ('S5W', 2.13),
  ('S8I', 2.83),
  ('K20I', 2.13),
  ('S8F', 3.04),
  ('K20E', 3.08),
  ('I14F', 3.8),
  ('C23E', 3.6),
  ('C7N', 4.05),
  ('P4S', 2.71),
  ('V24I', 3.64),
  ('I11D', 4.04),
  ('I11G', 3.13),
  ('K21E', 3.4),
  ('T6I', 2.9),
  ('P4D', 3.86);
